- tgt: T1, human GIP receptor (human) (UniProt P48546)
- T1 sequence (looked up): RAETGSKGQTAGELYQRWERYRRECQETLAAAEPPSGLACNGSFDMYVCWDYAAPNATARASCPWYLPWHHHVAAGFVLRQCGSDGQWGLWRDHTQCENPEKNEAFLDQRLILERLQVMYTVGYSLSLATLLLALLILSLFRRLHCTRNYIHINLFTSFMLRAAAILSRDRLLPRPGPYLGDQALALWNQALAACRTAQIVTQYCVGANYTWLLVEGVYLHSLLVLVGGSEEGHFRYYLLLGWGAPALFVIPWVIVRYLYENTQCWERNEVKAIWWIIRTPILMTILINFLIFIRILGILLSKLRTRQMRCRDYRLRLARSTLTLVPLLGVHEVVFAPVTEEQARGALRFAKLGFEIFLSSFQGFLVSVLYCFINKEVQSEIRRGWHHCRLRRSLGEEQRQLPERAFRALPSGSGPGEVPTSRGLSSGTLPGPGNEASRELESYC
- protocol_details: cell-based or functional assay
// thresholds for cAMP Rel EC50 (in the presence of 1% HSA) classes: lower range (below 2 nM), middle range (2 nM to below 40 nM), upper range (40 nM or more)

Worked set:
binder: YXQGTFTSDFSKXLDKKAQXAFIEYLLEGGPSSGEPPPEEG (not fully specified; synthetic construct; SITE 2: note = 2-Aminoisobutyric Acid; SITE 13: note = alpha-methyl-leucine; SITE 17: note = Lysine is chemically modified through conjugation of the epsilon-amino group of the Lysine side chain with (2-[2-(2-Amino-ethoxy)-ethoxy]-acetyl)-(gamma-Glu)-CO-(CH2) 18-CO2H; SITE 20: n) [Example 35]
category_label: upper range
//
binder: YXQGTFTSDFSKXLDKKAQXAFIEYLLEXGPSSGAPPPSSG (synthetic construct; SITE 2: note = 2-Aminoisobutyric Acid; SITE 13: note = alpha-methyl-leucine; SITE 17: note = Lysine is chemically modified through conjugation of the epsilon-amino group of the Lysine side chain with (2-[2-(2-Amino-ethoxy)-ethoxy]-acetyl)-(gamma-Glu)-CO-(CH2) 18-CO2H; SITE 20: n) [Example 44]
category_label: middle range
//
binder: YXQGTXTSDXSIXLDKKAQXXFIEYLAEGGPSSGEPPPSGSEE (non-natural residues; lipidated Lys (γGlu)2-C18 diacid; C-term amide; synthetic construct; SITE 2: note = 2-Aminoisobutyric Acid; SITE 6: note = alpha-methyl-2-fluoro-L-phenylalanine; SITE 10: note = 3-(4-Pyridyl)-L-alanine; SITE 13: note = alpha-methyl-leucine; SITE 17: note = Lysine is chemically modified through conjugation of the epsilon-amino group of the Lysine) [Example 636]
category_label: middle range

For the next question, use this binder.
### Prompt Quick check: band for YXQGTFTSDXSKXLDKKAQXAFIEYLIAXGESSGEPPPSGE (non-natural residues, AEEA-γGlu-diacid acylated Lys, C-terminal amide; synthetic construct; SITE 2: note = 2-Aminoisobutyric Acid; SITE 10: note = 3-(4-Pyridyl)-L-alanine; SITE 13: note = alpha-methyl-leucine; SITE 17: note = Lysine is chemically modified through conjugation of the epsilon-amino group of the Lysine side chain with (2-[2-(2-Amino-ethoxy)-ethoxy]-acetyl)) [Example 286]
### Response middle range
